Kindly supply the reported MIC grade, A. TERREUS 49, YAG media values for the records listed here.
System: A. terreus 49
ASSAY_INFO: Minimum inhibitory concentration, YAG medium
Format: cell-based, Aspergillus terreus
MEASUREMENT_PARAMETERS: banded MIC grade

NC1=NN=C(CCCCCCOc2ccccc2)CS1; 4 (4: <0.2 mg/L)

Batch lookup, MIC grade, A. TERREUS 49, YAG media per entry.
1. COCCCCOCCC1=NN=C(N)SC1
2. NC1=NN=C(CCCCOCc2cccc(C(F)(F)F)c2)CS1
3. CC(=O)OCCCCC1=NN=C(N)SC1
4. COc1ccc(CCCOCCC2=NN=C(N)SC2)cc1
5. NC1=NN=C(CCCCCCc2ccccc2)CS1
6. CCCCOc1cccc(C2=NN=C(N)SC2)c1
7. NC1=NN=C(CCCCOCc2cc(Cl)cc(Cl)c2)CS1

**A:**
1: 3 (3: 0.2-1 mg/L); 2: 2 (2: 1-5 mg/L); 3: 4 (4: <0.2 mg/L); 4: 2 (2: 1-5 mg/L); 5: 3 (3: 0.2-1 mg/L); 6: 1 (1: ≥5 mg/L); 7: 3 (3: 0.2-1 mg/L)

====

Test system: Aspergillus niger
ASSAY_INFO: Minimum inhibitory concentration, YAG medium
Format: cell-based
MEASUREMENT_PARAMETERS: banded MIC grade
For each record, write down the corresponding MIC grade, A. NIGER, YAG media.

CCOC(=O)c1cccc(C2=NN=C(N)SC2)c1; 1 (1: ≥5 mg/L)
NC1=NN=C(CCCCOCc2cc(F)ccc2F)CS1; 4 (4: <0.2 mg/L)
NC1=NN=C(c2ccc(Cl)c(Cl)c2)CS1; 2 (2: 1-5 mg/L)

Would you be so kind as to report MIC grade, A. NIGER, YAG media for each listed record?
1. NC1=NN=C(CCCCOCc2cc(Cl)cc(Cl)c2)CS1
2. NC1=NN=C2c3ccccc3CCC2S1 (stereo not shown)
3. NC1=NN=C(CCOC2CCCCC2)CS1
4. NC1=NN=C(CCCCOCCCc2ccc(F)cc2F)CS1
5. NC1=NN=C(CCCCCOCc2ccccc2)CS1
6. CCCCOC1CCC2=NN=C(N)SC2C1 (stereo not shown)
7. CCCCOc1cccc(C2=NN=C(N)SC2)c1
8. NC1=NN=C(CCCCOCc2cccc(CCc3ccccc3)c2)CS1

**A:**
1: 3 (3: 0.2-1 mg/L); 2: 1 (1: ≥5 mg/L); 3: 2 (2: 1-5 mg/L); 4: 3 (3: 0.2-1 mg/L); 5: 3 (3: 0.2-1 mg/L); 6: 2 (2: 1-5 mg/L); 7: 1 (1: ≥5 mg/L); 8: 2 (2: 1-5 mg/L)

====

Tested on: Aspergillus fumigatus
So I've got a bunch of compounds here, and I need their MIC values.

// known answers, use as guide
CCOC(=O)c1ccc(C2=CSC(N)=NN2C)cc1; < 0.2 mg/L
CN1N=C(N)SC=C1c1ccc(Cl)c(Cl)c1; 1 to 5 mg/L

Provide each entry's MIC from the list below.
1. CN1N=C(N)SC=C1c1ccc(C#N)cc1
2. COCCCCCN1N=C(N)SC=C1C
3. CCCCOc1ccc(C2=CSC(N)=NN2C)cc1
4. Cc1ccc(C2=CSC(N)=NN2C)cc1
5. COc1ccc(C2=CSC(N)=NN2C)cc1
6. CN1N=C(N)SC=C1c1cc2ccccc2o1

**A:**
["0.2 to 1 mg/L", "≥ 5 mg/L", "< 0.2 mg/L", "< 0.2 mg/L", "< 0.2 mg/L", "1 to 5 mg/L"]

**Q:** Give the observed MIC of `CN1N=C(N)SC=C1c1ccc(Cl)cc1` for Aspergillus fumigatus.
**A:** < 0.2 mg/L

====

Exercise: for every item that follows, state its recorded MIC grade, C. PARAPSILOSIS, RPMI media.
Tested on: C. parapsilosis
ASSAY_INFO: Minimum inhibitory concentration, RPMI medium
Format: cell-based
MEASUREMENT_PARAMETERS: banded MIC grade

CCCCc1ccc(COCCC2=NN=C(N)SC2)cc1; 2 (2: 5-20 mg/L)

List MIC grade, C. PARAPSILOSIS, RPMI media for every entry below, keeping the order given.
1. CCCCCOc1ccc(CCC2=NN=C(N)SC2)cc1
2. CCCCCCOCCC1=NN=C(N)SC1
3. NC1=NN=C(CCCCOCc2cccc(C3CC3)c2)CS1
4. NC1=NN=C(CCCCCCCOc2ccccc2)CS1
5. NC1=NN=C(CCOc2ccc(-c3ccccc3)cc2)CS1
6. NC1=NN=C(CCCCOCCCc2ccc(F)cc2F)CS1

**A:**
["3 (3: 1-5 mg/L)", "4 (4: <1 mg/L)", "4 (4: <1 mg/L)", "4 (4: <1 mg/L)", "1 (1: ≥20 mg/L)", "4 (4: <1 mg/L)"]

====

Kindly state MIC grade, A. FUMIGATUS 210, YAG media for each of the entries shown.
Test system: A. fumigatus 210
ASSAY_INFO: Minimum inhibitory concentration, YAG medium
Type: cell-based, Aspergillus fumigatus
MEASUREMENT_PARAMETERS: banded MIC grade
Method: Between 1 and 5 mgs of compound were accurately weighed out into a sterile Eppendorf tube. The compound was dissolved in DMSO to give a solution containing 5 mg/mL. Tubes were stored at −20° C. until required. On the day of testing thawed solutions were vortex mixed to ensure homogeneity. […] This typically produced MIC plates with a drug range 50-0.05 mg/L and organism inocula of 1-2×10^4 cfu/mL for Aspergillus spp. […] Growth was assessed by monitoring the optical density at 485 nm for each well. […]

For orientation, consider the following solved cases.
NC1=NN=C(CCCCCCc2ccccc2)CS1; 4 (4: <0.2 mg/L)
CCCCOc1cccc(C2=NN=C(N)SC2)c1; 1 (1: ≥5 mg/L)
COCCCCOCCC1=NN=C(N)SC1; 3 (3: 0.2-1 mg/L)
COC(=O)CC1=NN=C(N)SC1; 2 (2: 1-5 mg/L)

Turning now to a further record.
**Q:** Give MIC grade, A. FUMIGATUS 210, YAG media for this entry on A. fumigatus 210: `CCOC(=O)CCCCCC1=NN=C(N)SC1`
**A:** 4 (4: <0.2 mg/L)

====

Test system: Aspergillus niger
ASSAY_INFO: Minimum inhibitory concentration, YAG medium
Format: cell-based
MEASUREMENT_PARAMETERS: banded MIC grade
QUANTITY_MEASURED: MIC grade, A. NIGER, YAG media

Hi, could you look up MIC grade, A. NIGER, YAG media for each item in my list?
1. CCCCCOc1ccc(CCC2=NN=C(N)SC2)cc1
2. CCCCc1ccc(OCCCCCC2=NN=C(N)SC2)cc1
3. NC1=NN=C(CCOc2ccccc2)CS1

**A:**
["3 (3: 0.2-1 mg/L)", "3 (3: 0.2-1 mg/L)", "3 (3: 0.2-1 mg/L)"]

Please supply MIC grade, A. NIGER, YAG media for each of the following items, keeping them in order.
1. NC1=NN=C(CCCCOCc2cccc(Br)c2)CS1
2. CCc1cccc(OCCCCCC2=NN=C(N)SC2)c1
3. NC1=NN=C(c2ccc(Cl)cc2)CS1
4. NC1=NN=C(CCCCOCc2cccc(C(F)(F)F)c2)CS1

**A:**
4 (4: <0.2 mg/L)
4 (4: <0.2 mg/L)
2 (2: 1-5 mg/L)
3 (3: 0.2-1 mg/L)

====

Test system: Aspergillus niger
ASSAY_INFO: Minimum inhibitory concentration, YAG medium
Assay type: cell-based
MEASUREMENT_PARAMETERS: banded MIC grade
Kindly supply the reported MIC grade, A. NIGER, YAG media values for the records listed here.

Please review the entries below; each comes with its answer.
COCCCCC1=NN=C(N)SC1; 3 (3: 0.2-1 mg/L)
CCCCOCCC1=CNN=C(N)S1; 1 (1: ≥5 mg/L)
CC(=O)OCCCCC1=NN=C(N)SC1; 3 (3: 0.2-1 mg/L)
NC1=NN=C(CCOCc2ccccc2)CS1; 3 (3: 0.2-1 mg/L)
NC1=NN=C(CCCCOCc2cccc(-c3ccccc3)c2)CS1; 2 (2: 1-5 mg/L)

Batch of 2 molecules: report MIC grade, A. NIGER, YAG media for each.
1. CC(C)OCCC1=NN=C(N)SC1
2. NC1=NN=C(CCCCOCc2ccc(Cl)cc2)CS1

**A:**
1. 1 (1: ≥5 mg/L)
2. 4 (4: <0.2 mg/L)

====

So I've got a bunch of compounds here, and I need their MIC grade, C. PARAPSILOSIS, RPMI media values.
System: C. parapsilosis
ASSAY_INFO: Minimum inhibitory concentration, RPMI medium
Type: cell-based
MEASUREMENT_PARAMETERS: banded MIC grade

Known MIC grade, C. PARAPSILOSIS, RPMI media results, listed for orientation:
NC1=NN=C(CCCCOCc2cccc(CCc3ccccc3)c2)CS1; 2 (2: 5-20 mg/L)
COCCCCCCC1=NN=C(N)SC1; 4 (4: <1 mg/L)
NC1=NN=C(CCCCOCc2cc(F)ccc2F)CS1; 3 (3: 1-5 mg/L)
NC1=NN=C(CCCCOc2ccccc2)CS1; 4 (4: <1 mg/L)

Below are 8 compounds. Give each one its MIC grade, C. PARAPSILOSIS, RPMI media.
1. CCc1cccc(COCCCCC2=NN=C(N)SC2)c1
2. CN(CCCCCC1=NN=C(N)SC1)c1ccccc1
3. NC1=NN=C(CCCCCN2C(=O)c3ccccc3C2=O)CS1
4. CCc1ccc(OCCCCC2=NN=C(N)SC2)cc1
5. NC1=NN=C(CCCCC(=O)Nc2ccccc2)CS1
6. CCOC(=O)c1ccc(C2=CSC(N)=NN2)cc1
7. COCCCC1=NN=C(N)SC1
8. NC1=NN=C(CCCCOCc2ccc(Cl)cc2Cl)CS1

**A:**
1. 4 (4: <1 mg/L)
2. 2 (2: 5-20 mg/L)
3. 3 (3: 1-5 mg/L)
4. 4 (4: <1 mg/L)
5. 2 (2: 5-20 mg/L)
6. 4 (4: <1 mg/L)
7. 3 (3: 1-5 mg/L)
8. 2 (2: 5-20 mg/L)

**Q:** # return recorded MIC grade, C. PARAPSILOSIS, RPMI media for input `CCCc1ccc(C2=NN=C(N)SC2)cc1`
**A:** 1 (1: ≥20 mg/L)
